Values from ChEMBL document CHEMBL4411280

- System: Influenza A virus
- Test: Antiviral activity against Influenza A virus A/WSN/33/H1N1 infected in MDCK cells assessed as reduction in virus-induced cytopathic effect after 40 hrs by CellTiter-Glo assay
- Assay type: functional, organism-based
- Measurement Setup: A/WSN/33/H1N1, MDCK
The entries below come with measured pIC50 values attached.
Reminder that pIC50 is minus the log10 of a molar concentration.

See these solved cases before continuing.
# Molecule, Target Entity, pIC50
records = [
    ("C=C(C)[C@@H]1CC[C@]2(C(=O)NCCNC(=O)c3ccccc3O)CC[C@]3(C)[C@H](CC[C@@H]4[C@@]5(C)CC[C@H](O)C(C)(C)[C@@H]5CC[C@]43C)[C@@H]12", "Influenza A virus", 5.02),
    ("CCOC(=O)C1=C[C@@H](OC(CC)CC)[C@H](NC(C)=O)[C@@H](N)C1 [OSELTAMIVIR]", "Influenza A virus", 4.78),
]

Please examine the following record next.
Q: Which pIC50 is listed for `CC1(C)CC[C@]2(C(=O)NCCNC(=O)c3ccccc3O)CC[C@]3(C)C(=CC[C@@H]4[C@@]5(C)CC[C@H](O)C(C)(C)[C@@H]5CC[C@]43C)[C@@H]2C1` ?
A: 5.12
